observable: melting point

Cc1ccsc1C1CC(=NNC(=N)N)c2c(C)ccnc2C1.Cl (stereo not shown) :: 184 to 187 °C

Next compound, please.
For record Cc1ccccc1C1CC(=NNC(=N)N)c2c(C)coc2C1.Cl (stereo not shown) the listed melting point is 266 °C (dec.)

###

test system: Na—H exchange (Rattus norvegicus)
Construct: The blood was centrifuged at 3000 rpm for 5 seconds to obtain platelet rich plasma (PRP); from tissue; host or cells: platelets in platelet rich plasma from abdominal aortic blood of male Wistar rats
Sequence (P26431 whole entry): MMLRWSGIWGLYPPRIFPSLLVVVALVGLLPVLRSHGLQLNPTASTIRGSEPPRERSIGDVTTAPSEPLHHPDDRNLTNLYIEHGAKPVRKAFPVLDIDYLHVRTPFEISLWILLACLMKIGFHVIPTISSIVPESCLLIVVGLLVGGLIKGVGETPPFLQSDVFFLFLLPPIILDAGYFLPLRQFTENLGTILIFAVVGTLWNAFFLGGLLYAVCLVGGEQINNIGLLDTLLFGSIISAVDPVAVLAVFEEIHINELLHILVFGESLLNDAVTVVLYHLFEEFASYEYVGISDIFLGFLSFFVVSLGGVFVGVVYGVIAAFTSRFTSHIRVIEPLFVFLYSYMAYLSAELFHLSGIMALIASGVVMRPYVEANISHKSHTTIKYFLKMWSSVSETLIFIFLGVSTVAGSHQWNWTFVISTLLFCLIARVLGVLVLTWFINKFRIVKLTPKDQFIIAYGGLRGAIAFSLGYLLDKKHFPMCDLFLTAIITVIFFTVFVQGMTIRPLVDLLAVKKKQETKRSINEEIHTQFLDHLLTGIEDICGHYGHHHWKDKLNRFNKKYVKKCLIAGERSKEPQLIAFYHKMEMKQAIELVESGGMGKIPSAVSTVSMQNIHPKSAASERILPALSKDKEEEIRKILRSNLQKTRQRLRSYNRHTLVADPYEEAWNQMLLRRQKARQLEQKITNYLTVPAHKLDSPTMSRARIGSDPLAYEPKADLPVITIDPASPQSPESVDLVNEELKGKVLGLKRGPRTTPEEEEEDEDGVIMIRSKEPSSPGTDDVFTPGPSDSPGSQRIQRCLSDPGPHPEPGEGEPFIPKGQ
assay comment: Rat platelet swelling in sodium propionate solution (light transmittance of PRP), inhibition of Na—H exchange
Format: cell-based
assay conditions: 1 min, test compound 10^−7 M; rat platelet rich plasma; value 1 minute after sodium propionate solution; 100% = difference between 1% DMSO and HOE-642 (10^−5M); read-out: Inhibition Rate (%) [10^−7 M]
observable: inhibition at 0.1 µM (%)
Give just the numeric value; % need not be written.

Entry Cc1ccnc2c1C(=NNC(=N)N)CC(c1ccccc1O)C2.Cl (stereo not shown) [Compound 68, hydrochloride] , tested on Na—H exchange (Rattus norvegicus), has a reported inhibition at 0.1 µM of 70

###

observable: melting point

Cc1ccnc2c1C(=NNC(=N)N)CC(c1nccs1)C2.Cl (stereo not drawn) :: 282 °C (dec.)
Cc1ccccc1C1CC(=NNC(=N)N)c2c(C)n[nH]c2C1.Cl (stereo not drawn) :: 211 °C (dec.)
CS(=O)(=O)O.Cc1ccnc2c1C(=NNC(=N)N)CC(c1sc(Cl)cc1Cl)C2 (stereo not drawn) [Compound 144] :: 172 to 176 °C
Cc1cnnc2c1C(=NNC(=N)NO)CC(c1ccccc1Cl)C2.Cl (stereo not drawn) :: 210 °C (dec.)
CS(=O)(=O)O.Cc1ccnc2c1C(=NNC(=N)N)CC(c1cc(Cl)sc1Cl)C2 (stereo not drawn) [Compound 111] :: 225 to 229 °C

For record Cl.N=C(N)N/N=C1\CC(c2ccc(F)cc2)Cc2occ(C(F)(F)F)c21 (stereo not drawn) the listed melting point is 283 °C (dec.)

###

Measured melting point by item

Cc1c[n+]([O-])nc2c1C(=NNC(=N)N)CC(c1ccccc1Cl)C2.Cl (centres unmarked) :: 249 to 250 °C
Cc1coc2c1C(=NNC(=N)N)CC(c1ccccc1)C2.Cl (centres unmarked) :: 250 °C (dec.)
Cc1coc2c1C(=NNC(=N)N)CC(c1cccs1)C2.Cl (centres unmarked) [Compound 48] :: 285 °C (dec.)

For record Cc1ccnc2c1C(=NNC(=N)N)CC(c1cc(Cl)sc1Cl)C2.Cl (centres unmarked) the listed melting point is ≥ 300 °C

###

Measured melting point by item

Cc1ccnc2c1C(=NNC(=N)N)CC(c1ccsc1Cl)C2.Cl (stereo not shown) :: 281 to 283 °C (dec.)
COc1ccc(Cl)cc1C1CC(=NNC(=N)N)c2c(C)ccnc2C1.Cl (stereo not shown) :: 205 to 209 °C
Cc1ccc(C2CC(=NNC(=N)N)c3c(C)ccnc3C2)s1.Cl (stereo not shown) :: 271 to 273 °C
CS(=O)(=O)O.Cc1ccnc2c1C(=NNC(=N)N)CC(c1cc(Cl)ccc1Cl)C2 (stereo not shown) :: 248 °C (dec.)
Cc1ccccc1C1=CC(=NNC(=N)N)c2c(C)ccnc21.Cl :: 203 to 204 °C (dec.)

For record Cc1ccccc1C1CC(=NNC(=N)N)c2c(C)ccnc2C1.Cl (stereo not shown) the listed melting point is 218 °C (dec.)

For record COc1ccccc1C1C/C(=N\NC(=N)N)c2c(C)coc2C1.Cl (stereo not shown) the listed melting point is 279 °C (dec.)

For record Cc1ccnc2c1C(=NNC(=N)N)CC(c1ccccc1O)C2.Cl (stereo not shown) the listed melting point is 161 °C (dec.)
